biological target: ScHse1; assay: SPOT peptide array binding signal intensity (averaged, normalized) (arbitrary units (background-subtracted, floor 0; scale differs between SH3 domains)); higher = stronger binding of the SH3 domain to the peptide
READOUT TYPE: SPOT peptide array binding signal intensity

- BINDER: "DKKTKPTPPPKPSHL"
  READOUT QUALIFIER: "="
  READOUT VALUE: 16.5
- BINDER: "NLDRSKISLPDFDDE"
  READOUT QUALIFIER: "="
  READOUT VALUE: 1260
- BINDER: "GQYRRTIVIPRRFFT"
  READOUT QUALIFIER: "="
  READOUT VALUE: 995
- BINDER: "NVLRKILEIPLHSFS"
  READOUT QUALIFIER: "="
  READOUT VALUE: 1780
- BINDER: "PSTMDFPKLPSFQNS"
  READOUT QUALIFIER: "="
  READOUT VALUE: 130
- BINDER: "QNTPPLPPKPKSPHL"
  READOUT QUALIFIER: "≤"
  READOUT VALUE: 0
- BINDER: "RVTRKRPREPKSTND"
  READOUT QUALIFIER: "="
  READOUT VALUE: 1040
- BINDER: "HRRRRVFSIPSLKSI"
  READOUT QUALIFIER: "="
  READOUT VALUE: 2170
- BINDER: "VTHRLRISIPGITGR"
  READOUT QUALIFIER: "="
  READOUT VALUE: 1450
- BINDER: "ATNVPVAPPPPPASL"
  READOUT QUALIFIER: "≤"
  READOUT VALUE: 0
- BINDER: "TSIEIPKRSPLRFTS"
  READOUT QUALIFIER: "="
  READOUT VALUE: 20.5
- BINDER: "TKHKAPPPPPPTAET"
  READOUT QUALIFIER: "≤"
  READOUT VALUE: 0
- BINDER: "RKRAPTPPAPSRSEK"
  READOUT QUALIFIER: "="
  READOUT VALUE: 762
- BINDER: "VQKRKLPLPGSIASA"
  READOUT QUALIFIER: "="
  READOUT VALUE: 63
- BINDER: "YLTRPLPSTPNEDSR"
  READOUT QUALIFIER: "≤"
  READOUT VALUE: 0
- BINDER: "DTIDNVKSKIQDKEG"
  READOUT QUALIFIER: "≤"
  READOUT VALUE: 0
- BINDER: "ISNFVPPNLPMRRFK"
  READOUT QUALIFIER: "="
  READOUT VALUE: 122
- BINDER: "PSRRAPLQLPQLVNK"
  READOUT QUALIFIER: "="
  READOUT VALUE: 35.5
- BINDER: "SKSRLLIELPEGFFT"
  READOUT QUALIFIER: "="
  READOUT VALUE: 89
- BINDER: "GDHPKGPPPPPPPDE"
  READOUT QUALIFIER: "="
  READOUT VALUE: 7.5
- BINDER: "RRSKSLPITPKSIFN"
  READOUT QUALIFIER: "="
  READOUT VALUE: 420
- BINDER: "GSKSGPPPRPKKPST"
  READOUT QUALIFIER: "="
  READOUT VALUE: 13
- BINDER: "DKSRPPRPPPKPLHL"
  READOUT QUALIFIER: "≤"
  READOUT VALUE: 0
- BINDER: "AERNYAPRLPRRETS"
  READOUT QUALIFIER: "="
  READOUT VALUE: 42
- BINDER: "KIRRSSLMIPNPQQF"
  READOUT QUALIFIER: "="
  READOUT VALUE: 388
- BINDER: "DLPLPDLPPEPPTEL"
  READOUT QUALIFIER: "≤"
  READOUT VALUE: 0
- BINDER: "NPNRRAPRRPLSTQH"
  READOUT QUALIFIER: "="
  READOUT VALUE: 2480
- BINDER: "QTREPNEPPPPSPAM"
  READOUT QUALIFIER: "≤"
  READOUT VALUE: 0
- BINDER: "NLPKRKPPKLQGPFS"
  READOUT QUALIFIER: "="
  READOUT VALUE: 1280
- BINDER: "RKNRAPPQRPRFNRE"
  READOUT QUALIFIER: "="
  READOUT VALUE: 761
